target: T1, human IL-17A (construct not stated) (human, UniProt Q16552 24-155, limits assumed)
T1 construct: also called huIL-17A; human IL-17A biotin
T1 sequence: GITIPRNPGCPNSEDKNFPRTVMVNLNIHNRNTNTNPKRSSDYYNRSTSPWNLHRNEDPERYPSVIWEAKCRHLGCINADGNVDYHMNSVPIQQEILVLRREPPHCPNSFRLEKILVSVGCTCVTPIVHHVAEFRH
assay_text: ELISA on coated huIL-17A, crude Fab extract, overnight with 200 nM XAB1 Fab as competitor
Reported Competition ELISA (normalized to XAB1 Fab) values follow for various binders

These solved cases illustrate the format of a correct answer.
MB435 (Fab, V domains shown, heavy chain C-terminal Flag tag) VH: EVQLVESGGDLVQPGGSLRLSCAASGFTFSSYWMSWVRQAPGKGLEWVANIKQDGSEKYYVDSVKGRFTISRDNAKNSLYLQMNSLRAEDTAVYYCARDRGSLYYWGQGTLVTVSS VL: AIQLTQSPSSLSASVGDRVTITCRPSQGINWELAWYQQKPGKAPKLLIYDASSLENGVPSRFSGSGSGTDFTLTISSLQPEDFATYYCQQFNSYPLTFGGGTKVEIK
44.6 ratio to XAB1 Fab
MB464 (Fab, V domains shown, 30 stays I); heavy chain C-terminal Flag tag) VH: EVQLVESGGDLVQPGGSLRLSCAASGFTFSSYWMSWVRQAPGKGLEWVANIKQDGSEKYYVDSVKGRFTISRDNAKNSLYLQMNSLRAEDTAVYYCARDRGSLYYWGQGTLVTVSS VL: AIQLTQSPSSLSASVGDRVTITCRPSQGIIYQLAWYQQKPGKAPKLLIYDASSLENGVPSRFSGSGSGTDFTLTISSLQPEDFATYYCQQFNSYPLTFGGGTKVEIK
36.9 ratio to XAB1 Fab
MB434 (Fab, V domains shown, heavy chain C-terminal Flag tag) VH: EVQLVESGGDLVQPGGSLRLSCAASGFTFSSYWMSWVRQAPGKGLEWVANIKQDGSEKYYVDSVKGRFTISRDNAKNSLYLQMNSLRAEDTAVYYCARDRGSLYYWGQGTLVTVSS VL: AIQLTQSPSSLSASVGDRVTITCRPSQGIWWYLAWYQQKPGKAPKLLIYDASSLENGVPSRFSGSGSGTDFTLTISSLQPEDFATYYCQQFNSYPLTFGGGTKVEIK
39.5 ratio to XAB1 Fab

Please examine the following record next.
Entry MB483 (Fab, V domains shown, heavy chain C-terminal Flag tag) VH: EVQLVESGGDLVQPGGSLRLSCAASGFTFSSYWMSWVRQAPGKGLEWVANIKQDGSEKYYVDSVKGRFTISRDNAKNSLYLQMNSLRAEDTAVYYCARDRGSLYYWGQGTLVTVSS VL: AIQLTQSPSSLSASVGDRVTITCRPSQGIFWTLAWYQQKPGKAPKLLIYDASSLENGVPSRFSGSGSGTDFTLTISSLQPEDFATYYCQQFNSYPLTFGGGTKVEIK , Competition ELISA (normalized to XAB1 Fab) reported as 45.2 ratio to XAB1 Fab
